Biological target: full length human TREX1 (Homo sapiens, UniProt Q9NSU2)
Construct: N-terminally His-Tev tagged full length human TREX1; made in house; host or cells: E. coli
Experiment: hTREX1 Biochemical Assay (fluorescence, dsDNA substrate degradation)
Details: biochemical, read-out: hTREX1 IC50
pIC50: −log10 of the molar value.
experimental_endpoint: pIC50

Answered examples (5):
Qu. Give its pIC50 value. Item: CCn1cc(C(c2ccccc2Cl)C(C)c2nc(C(=O)Nc3cnoc3)c(O)c(=O)n2C)cn1 (single isomer, unassigned) [Example 85 D2E2]
Ans. < 8.00

Qu. Now give it for CC(c1nc(C(=O)Nc2cnoc2)c(O)c(=O)n1C)C(c1cnn(CC(C)(C)O)c1)c1ccccc1Cl (single isomer, unassigned) [Example 86 D2E1] too.
Ans. < 8.00

Qu. Now give it for CC(c1nc(C(=O)Nc2cnoc2)c(O)c(=O)n1C)C(c1cnn(C)c1)c1cccnc1C#N (single isomer, unassigned) [Example 7 D2E1] too.
Ans. < 8.00

Qu. Now give it for Cc1nn(C)cc1C(c1cc(F)ccc1C#N)C(c1nc(C(=O)Nc2cnoc2)c(O)c(=O)n1C)C(F)(F)F (single isomer, unassigned) [Example 42 D1E1] too.
Ans. < 8.00

Qu. Now give it for Cc1cc(C)n(C(c2ccccc2Cl)C(C)c2nc(C(=O)Nc3cnoc3)c(O)c(=O)n2C)n1 (single isomer, unassigned) [Example 136 D1E2] too.
Ans. > 9.00

---
Qu. Give its pIC50 value. Item: CC(c1nc(C(=O)Nc2cnoc2)c(O)c(=O)n1C)C(c1cnn(C)c1)c1ccc(Cl)cc1C#N (single isomer, unassigned) [Example 27 D1E1]
Ans. > 9.00

----------
Target: UniProt:Q9NSU2
Sequence (Q9NSU2 1-314): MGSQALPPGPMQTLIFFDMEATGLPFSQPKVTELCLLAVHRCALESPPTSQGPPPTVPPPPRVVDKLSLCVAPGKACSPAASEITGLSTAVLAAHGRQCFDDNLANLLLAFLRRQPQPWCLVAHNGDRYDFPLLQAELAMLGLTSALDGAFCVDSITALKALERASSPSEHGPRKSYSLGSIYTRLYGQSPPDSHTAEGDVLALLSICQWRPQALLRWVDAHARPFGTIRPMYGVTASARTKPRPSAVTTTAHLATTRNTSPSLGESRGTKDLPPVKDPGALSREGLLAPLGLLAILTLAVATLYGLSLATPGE
Assay: hTREX1 HCT116 Cell Assay (HCT116 dual cells, Lucia luciferase reporter of Type I interferon induction)
Conditions: TREX1i 4 h before pBR322/BstNI transfection, read after 48 h
pIC50: −log10 of the molar value.
Documented pIC50 across a set of compounds

Answered examples (8):
Qu. Give its pIC50 value. Item: Cc1nn(C)c(C)c1C(c1cc(F)ccc1C#N)C(C)c1nc(C(=O)Nc2cnoc2)c(O)c(=O)n1C (single isomer, unassigned) [Example 109 D1E1]
Ans. 7.00 to 8.00

Qu. Now give it for Cc1nn(C)c(C)c1C(c1ccccc1C#N)C(C)c1nc(C(=O)Nc2cnoc2)c(O)c(=O)n1C (single isomer, unassigned) [Example 78 D2E1] too.
Ans. 7.00 to 8.00

Qu. Now give it for CCn1cc(C(c2ccccc2Cl)C(C)c2nc(C(=O)Nc3cnoc3)c(O)c(=O)n2C)cn1 (single isomer, unassigned) [Example 85 D1E2] too.
Ans. < 7.00

Qu. Now give it for CC(c1nc(C(=O)Nc2cnoc2)c(O)c(=O)n1C)C(c1cnn(C)c1)c1c(C#N)cccc1C#N (single isomer, unassigned) [Example 19 D1E2] too.
Ans. > 8.00

Qu. Now give it for CC(c1nc(C(=O)Nc2cnoc2)c(O)c(=O)n1C)C(c1cnn(C)c1)c1cc(Cl)ccc1C#N (single isomer, unassigned) [Example 26 D1E2] too.
Ans. 7.00 to 8.00

Qu. Now give it for Cc1cnc(C(c2cc(F)ccc2C#N)C(C)c2nc(C(=O)Nc3cnoc3)c(O)c(=O)n2C)cn1 (single isomer, unassigned) [Example 115 D1E2] too.
Ans. > 8.00

Qu. Now give it for Cc1cnn(C)c1C(c1ccccc1C#N)C(C)c1nc(C(=O)Nc2cnoc2)c(O)c(=O)n1C (single isomer, unassigned) [Example 84 D1E1] too.
Ans. 7.00 to 8.00

Qu. Now give it for CC(c1nc(C(=O)Nc2cnoc2)c(O)c(=O)n1C)C(c1cnn(CCN2CCN(C(=O)OC(C)(C)C)CC2)c1)c1ccccc1C#N (single isomer, unassigned) [Example 21 D1E1] too.
Ans. 7.00 to 8.00

---
Qu. Give its pIC50 value. Item: CC(c1nc(C(=O)Nc2cnoc2)c(O)c(=O)n1C)C(c1cnn(CC(F)(F)F)c1)c1ccccc1C#N (single isomer, unassigned) [Example 22 D1E1]
Ans. > 8.00

Qu. Now give it for COCCn1ncc(C(c2cc(F)ccc2Cl)C(C)c2nc(C(=O)Nc3cnoc3)c(O)c(=O)n2C)c1C (single isomer, unassigned) [Example 108 D1E1] too.
Ans. < 7.00

Qu. Now give it for COCCn1cc(C(c2cc(F)ccc2C#N)C(C)c2nc(C(=O)Nc3cnoc3)c(O)c(=O)n2C)c(C)n1 (single isomer, unassigned) [Example 103 D2E1] too.
Ans. < 7.00

----------
Target: full length mouse TREX1 (Mus musculus, UniProt Q91XB0)
Construct: N-terminally His-Tev tagged full length mouse TREX1; made in house; host or cells: E. coli
Sequence (Q91XB0 whole entry): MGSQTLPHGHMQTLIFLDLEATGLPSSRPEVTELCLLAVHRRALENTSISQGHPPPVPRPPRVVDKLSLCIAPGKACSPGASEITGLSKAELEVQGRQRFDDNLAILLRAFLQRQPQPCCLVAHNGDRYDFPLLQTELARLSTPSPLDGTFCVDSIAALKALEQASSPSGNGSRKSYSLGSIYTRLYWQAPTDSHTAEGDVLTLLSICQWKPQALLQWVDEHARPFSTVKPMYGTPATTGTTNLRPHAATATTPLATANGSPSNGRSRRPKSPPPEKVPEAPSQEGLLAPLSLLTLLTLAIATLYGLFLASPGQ
Assay: mTREX1 Biochemical Assay (fluorescence, dsDNA substrate degradation)
Conditions: biochemical, read-out: mTREX1 IC50
pIC50: −log10 of the molar value.
experimental_endpoint: pIC50

Qu. Param readout = pIC50; param system = full length mouse TREX1 (Mus musculus, UniProt Q91XB0); param query = CC(c1nc(C(=O)Nc2cnoc2)c(O)c(=O)n1C)C(c1cnn(C)c1)c1cccnc1C#N (single isomer, unassigned) [Example 7 D1E1] ; response: value
Ans. < 8.00

---
Qu. Param readout = pIC50; param system = full length mouse TREX1 (Mus musculus, UniProt Q91XB0); param query = Cc1cnc(C(c2ccccc2C#N)C(C)c2nc(C(=O)Nc3cnoc3)c(O)c(=O)n2C)c(C)n1 (single isomer, unassigned) [Example 123 D2E1] ; response: value
Ans. < 8.00

Qu. Now give it for Cc1nn(C)cc1C(c1cc(F)ccc1C#N)C(C)c1nc(C(=O)Nc2cnoc2)c(O)c(=O)n1C (single isomer, unassigned) [Example 57 D1E1] too.
Ans. < 8.00

----------
Target: full length human TREX1 (Homo sapiens)
Construct: N-terminally His-Tev tagged full length human TREX1; made in house; host or cells: E. coli
Assay: hTREX1 Biochemical Assay (fluorescence, dsDNA substrate degradation)
Details: biochemical, read-out: hTREX1 IC50
pIC50: −log10 of the molar value.
experimental_endpoint: pIC50

Qu. Give its pIC50 value. Item: Cc1nn(C)cc1C(c1ccccc1C#N)C(C)c1nc(C(=O)Nc2cnoc2)c(O)c(=O)n1C (single isomer, unassigned) [Example 3 D2E2]
Ans. 8.00 to 9.00

Qu. Now give it for CC(c1nc(C(=O)Nc2cnoc2)c(O)c(=O)n1C)C(c1cnn(CC2CC2)c1)c1ccccc1C#N (single isomer, unassigned) [Example 23 D1E2] too.
Ans. > 9.00

Qu. Now give it for CC(c1nc(C(=O)Nc2cnoc2)c(O)c(=O)n1C)C(c1ccccc1Cl)n1cccn1 (single isomer, unassigned) [Example 45 D1E2] too.
Ans. < 8.00

---
Qu. Give its pIC50 value. Item: Cc1ncc(C(c2ccccc2C#N)C(C)c2nc(C(=O)Nc3cnoc3)c(O)c(=O)n2C)nc1C (single isomer, unassigned) [Example 81 D1E2]
Ans. > 9.00

Qu. Now give it for CC(c1nc(C(=O)Nc2cnoc2)c(O)c(=O)n1C)C(c1cnn(C)c1)c1ccc(Cl)cc1C#N (single isomer, unassigned) [Example 27 D1E2] too.
Ans. < 8.00

Qu. Now give it for Cc1cc(C(c2ccccc2C#N)C(C)c2nc(C(=O)Nc3cnoc3)c(O)c(=O)n2C)n(C)n1 (single isomer, unassigned) [Example 63 D1E1] too.
Ans. > 9.00

Qu. Now give it for Cc1cncc(C(c2ccccc2C#N)C(C)c2nc(C(=O)Nc3cnoc3)c(O)c(=O)n2C)n1 (single isomer, unassigned) [Example 53 D2E2] too.
Ans. < 8.00

Qu. Now give it for CC(c1nc(C(=O)Nc2cnoc2)c(O)c(=O)n1C)C(c1ccccc1C#N)c1ccnn1C (single isomer, unassigned) [Example 1 D1E1] too.
Ans. 8.00 to 9.00

Qu. Now give it for CCn1ncc(C(c2ccccc2C#N)C(C)c2nc(C(=O)Nc3cnoc3)c(O)c(=O)n2C)c1C (single isomer, unassigned) [Example 68 D1E1] too.
Ans. > 9.00

Qu. Now give it for CC(c1nc(C(=O)Nc2cnoc2)c(O)c(=O)n1C)C(c1cnn(C)c1)c1cc(F)ccc1Cl (single isomer, unassigned) [Example 61 D2E2] too.
Ans. < 8.00

Qu. Now give it for CCn1cc(C(c2cc(F)ccc2C#N)C(C)c2nc(C(=O)Nc3cnoc3)c(O)c(=O)n2C)cn1 (single isomer, unassigned) [Example 17 D1E2] too.
Ans. > 9.00

Qu. Now give it for Cc1ncc(C(c2cc(F)ccc2C#N)C(C)c2nc(C(=O)Nc3cnoc3)c(O)c(=O)n2C)nc1C (single isomer, unassigned) [Example 124 D1E1] too.
Ans. < 8.00
